Form field: composite z-score (one value per entry).
Target: Calmodulin-1 (Homo sapiens)
Test: small molecules binding Ca-loaded calmodulin-1 – biochemical, small-molecule microarray, Cy5-labelled CALM1, plus calcium, artefact control for SMM control-protein annotation, profiling panel (AID 1112);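 further: score merges spot fluorescence with signal to noise from triplicate slides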
Conditions: Cy5-CALM1 binding fluorescence, higher = more signal
Reply with the value as a number alone.

{"COMPOUND": "CCOc1cc(C(O)C2C=CC3C(=O)NC(=O)C3N2Nc2ccccn2)ccc1O (stereo not drawn)", "composite z-score": -0.108}

Consider COCCOC(=O)N1C(=O)[C@@]2(c3ccccc31)[C@H](c1ccc(OCCO)cc1)N1[C@H](c3ccccc3)[C@H](c3ccccc3)OC(=O)[C@H]1[C@@H]2C(=O)NC[C@H](O)c1ccccc1 . Its measured composite z-score is 0.716

Consider CCCCCCCCCCC(O)C1C=CC2C(=O)NC(=O)C2N1Nc1ccccn1 (stereo not drawn) . Its measured composite z-score is 0.945
